Target: T1, human PD-L1 ECD-His (human, UniProt Q9NZQ7 19-238)
T1 construct: extracellular domain; Analyte in all SPR and BLI runs; also called hPD-L1_ECD-His; hPD-L1 ECD-His; not shown: His tag
T1 sequence (Q9NZQ7 19-238): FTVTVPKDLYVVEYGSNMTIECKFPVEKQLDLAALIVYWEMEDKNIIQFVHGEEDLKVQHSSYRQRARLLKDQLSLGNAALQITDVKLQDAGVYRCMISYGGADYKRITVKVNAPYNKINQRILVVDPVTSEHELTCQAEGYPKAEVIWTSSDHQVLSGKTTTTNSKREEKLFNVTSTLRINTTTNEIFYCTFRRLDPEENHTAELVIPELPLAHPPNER
Assay: SPR, 25 C, antibody captured by anti-human IgG Fc, hPD-L1_ECD-His analyte, 1:1 fit
kon values for the binders below.
Entry rule: numbers only, all in M⁻¹ s⁻¹.

// returns reported kon for input PL2 (full-length, N297A mutant human IgG1) (antibody, V domains shown) VH: EVQLVQSGGGLVKPGGSLRLSCAASGFTFSSYTMNWVRQAPGKGLEWVSSISSGSDYLYYADSVKGRFTISRDNAKNSLYLQMNSLRAEDTAVYYCARNELRWYPQAGAFDIWGQGTMVTVSS VL: QSVVTQPPSMSAAPGQNVTISCSGSSSYIESSYVSWYQQLPGTAPRLLIYDDDMRPSGIPDRFSGSKSGTSATLAITGLQTGDEADYYCEIWDSGLGGVFGGGTKLTVLS
438000

// returns reported kon for input PL6 (full-length, N297A mutant human IgG1) (antibody, V domains shown) VH: EVQLVQSGAEVKKPGSSVKVSCKASGGTFSSYTINWVRQAPGQGLEWVGKIIPILGIADYAQMFKGRVTITADKFTSTVYMELNSLRSEDTAVYYCARGGYVGYLNAFDIWGQGTMVTVSS VL: QSVVTQPPSVSGAPGQRVTISCTGSSSNIGAGYDVHWYQQLPGTAPKLLIYGNSNRPSGVPDRFSGSKSGTSASLAITGLQAEDEADYYCQSYDSSLSGGVFGGGTKLTVLG
1.05e+06
